// data source = patent US20230123334A1

System: HEK293 cells
Assay: Preliminary screening as DNA vectors, GFP transfection of HEK293 cells
Type: cell-based
Settings: amino lipid/DOPE liposome with 75 ng plasmid DNA (psin-EGFP-IRES-Puro); number of GFP-expressing cells divided by total nuclei (Hoechst)
recorded endpoint: Absolute DNA transfection efficiency in HEK293 cells (%)
Enter your answer as a number in %; do not include the unit.

Worked cases, answers included:
[
  {
    "compound": "CCCCCCCCCCCCN(CCCCCCCCCCCC)c1nc(NCCN2CCCC2)nc(SCCCCCCCCC)n1",
    "output unit": "%",
    "measured value": 0.0
  },
  {
    "compound": "CCCCCCCCCCCCCCCCCCSc1nc(NCCCCCCCCCCCCCCCC)nc(NCCN2CCOCC2)n1 [S18N16 D2]",
    "output unit": "%",
    "measured value": 0.0
  },
  {
    "compound": "CCCCCCCCSc1nc(NCCN2CCOCC2)nc(SCCCCCC)n1 [S6S8 D2]",
    "output unit": "%",
    "measured value": 2.5
  },
  {
    "compound": "CCCCCCCCSc1nc(NCCCCCCC)nc(NCCN(C)C)n1 [S8N7 D1]",
    "output unit": "%",
    "measured value": 3.0
  },
  {
    "compound": "CCCCCCCCCCCCCCCSc1nc(NCCCCCCCCCCCC)nc(NCC2CCN(C)CC2)n1",
    "output unit": "%",
    "measured value": 4.3
  }
]

Prompt: Hello, please tell me recorded Absolute DNA transfection efficiency in HEK293 cells for this one: "CCCCCCCNc1nc(NCCN2CCCC2)nc(SCCCCCC)n1"
Completion: 0.0

Prompt: Hello, please tell me recorded Absolute DNA transfection efficiency in HEK293 cells for this one: CCCCCCCCCCCCNc1nc(NCCN2CCOCC2)nc(SCCCCCCCCC)n1 [S9N12 D2]
Completion: 13.0

Prompt: Hello, please tell me recorded Absolute DNA transfection efficiency in HEK293 cells for this one: "CCCCCCCCCCCCCCCCCCNc1nc(NCCCN2CCN(C)CC2)nc(SCCCCCCCCCCCCCCCC)n1"
Completion: 0.0

Prompt: Hello, please tell me recorded Absolute DNA transfection efficiency in HEK293 cells for this one: "CCCCCCCCCCCNc1nc(NCCN(CC)CC)nc(SCCCCCCCCCCC)n1"
Completion: 6.8

###

Tested on: HEK293 cells
Assay: Preliminary screening as mRNA vectors, EGFP mRNA transfection of HEK293 cells
Type: cell-based
Settings: EGFP mRNA 50 ng per well, 96-well plates; percentage of GFP fluorescent cells relative to total number of cells (Hoechst)
Lab note: cut-off is 2%. Strictly less in Absolute mRNA transfection efficiency in HEK293 cells is t. Exactly 2% or more is f.

// known answers, use as guide
[
  {
    "compound": "CCCCCCCCCCCCCCCCCCNc1nc(NCCN2CCCCC2)nc(SCCCCCCCCCCCCCCCCCC)n1 [Compound D4S18N18]",
    "label value": "t"
  },
  {
    "compound": "CCCCCCCCSc1nc(NCC2CCN(C)CC2)nc(SCCCCCCC)n1 [Compound D10S7S8]",
    "label value": "f"
  },
  {
    "compound": "CCCCCCCCCCCNc1nc(NCCN2CCCCC2)nc(SCCCCCCCC)n1 [Compound D4S8N11]",
    "label value": "t"
  },
  {
    "compound": "CCCCCCCCNc1nc(NCCN2CCCC2)nc(SCCCCCCCC)n1 [Compound D3S8N8]",
    "label value": "f"
  },
  {
    "compound": "CCCCCCCCCCCCCCCSc1nc(NCCN2CCCCC2)nc(N(CCCCCCCCCCCC)CCCCCCCCCCCC)n1 [D4S15^2N12]",
    "label value": "t"
  }
]

Prompt: Is 2% strictly greater than the compound's reported Absolute mRNA transfection efficiency in HEK293 cells? compound: CCCCCCCCCCCCCCCCSc1nc(NCCCCCCCCCCC)nc(NCCCN2CCN(C)CC2)n1 [Compound D9S16N11]
Completion: f

Prompt: Is 2% strictly greater than the compound's reported Absolute mRNA transfection efficiency in HEK293 cells? compound: CCCCCCCCSc1nc(NCCN2CCCC2)nc(SCCCCCCCC)n1 [Compound D3S8S8]
Completion: f

Prompt: Is 2% strictly greater than the compound's reported Absolute mRNA transfection efficiency in HEK293 cells? compound: CCCCCCCCCCCCN(CCCCCCCCCCCC)c1nc(NCCN2CCOCC2)nc(SCCCCCCC)n1 [D2S7^2N12]
Completion: t

Prompt: Is 2% strictly greater than the compound's reported Absolute mRNA transfection efficiency in HEK293 cells? compound: CCCCCCCCCCCCN(CCCCCCCCCCCC)c1nc(NCCCN(C)C)nc(SCCCCCCC)n1 [D6S7^2N12]
Completion: t

Prompt: Is 2% strictly greater than the compound's reported Absolute mRNA transfection efficiency in HEK293 cells? compound: CCCCCCCCCCCCCCCCNc1nc(NCCN2CCCCC2)nc(SCCCCCCCCCCCC)n1 [Compound D4S12N16]
Completion: t

Prompt: Is 2% strictly greater than the compound's reported Absolute mRNA transfection efficiency in HEK293 cells? compound: CCCCCCCCCCCCCNc1nc(NCCN(CC)CC)nc(SCCCCCCC)n1 [Compound D7S7N13]
Completion: t

Prompt: Is 2% strictly greater than the compound's reported Absolute mRNA transfection efficiency in HEK293 cells? compound: CCCCCCCCCCCCSc1nc(NCCCCCCC)nc(NCCN(C)C)n1 [Compound D1S12N7]
Completion: t

Prompt: Is 2% strictly greater than the compound's reported Absolute mRNA transfection efficiency in HEK293 cells? compound: CCCCCCCCCCCCCCCNc1nc(NCCN2CCOCC2)nc(SCCCCCCCC)n1 [Compound D2S8N15]
Completion: f

Prompt: Is 2% strictly greater than the compound's reported Absolute mRNA transfection efficiency in HEK293 cells? compound: CCCCCCCCCCCCCCCCNc1nc(NCCCN(C)C)nc(SCCCCCCCCCC)n1 [Compound D6S10N16]
Completion: f

Prompt: Is 2% strictly greater than the compound's reported Absolute mRNA transfection efficiency in HEK293 cells? compound: CCCCCCCCCCCCCCCCCCNc1nc(NCCCN(C)C)nc(SCCCCCCCCCCC)n1 [Compound D6S11N18]
Completion: f

Prompt: Is 2% strictly greater than the compound's reported Absolute mRNA transfection efficiency in HEK293 cells? compound: CCCCCCCCCCCCCCSc1nc(NCCCCCCCC)nc(NCCCN2CCN(C)CC2)n1 [Compound D9S14N8]
Completion: f

Prompt: Is 2% strictly greater than the compound's reported Absolute mRNA transfection efficiency in HEK293 cells? compound: CCCCCCCCCNc1nc(NCCN2CCCCC2)nc(SCCCCCCCC)n1 [Compound D4S8N9]
Completion: f

###

Test system: HEK293 cells
Test: Preliminary screening as DNA vectors, GFP transfection of HEK293 cells
Format: cell-based
Settings: amino lipid/DOPE liposome with 75 ng plasmid DNA (psin-EGFP-IRES-Puro); number of GFP-expressing cells divided by total nuclei (Hoechst)
Entries and their Absolute DNA transfection efficiency in HEK293 cells
Enter your answer as a number in %; do not include the unit.

Prompt: Hello, please tell me recorded Absolute DNA transfection efficiency in HEK293 cells for this one: CCCCCCCCCCCCSc1nc(NCCCCCC)nc(NCCCN2CCOCC2)n1 [S12N6 D8]
Completion: 0.1

###

Test system: embryonic stem cells (hESC2)
Experiment: Screening as mRNA vectors in embryonic stem cells
Type: cell-based
Conditions: 50 ng EGFP mRNA per well
Lab note: cut-off is 1%. Strictly less in Absolute mRNA transfection efficiency in embryonic stem cells is met. Exactly 1% or more is not met.

// known answers, use as guide
[
  {
    "molecule": "CCCCCCCCCCCCCCCSc1nc(NCCCN2CCOCC2)nc(SCCCCCCCCC)n1 [Compound S9S15D8]",
    "label value": "met"
  },
  {
    "molecule": "CCCCCCCCCCCCSc1nc(NCCN2CCCC2)nc(SCCCCCCCCC)n1 [Compound S9S12D3]",
    "label value": "not met"
  },
  {
    "molecule": "CCCCCCCCCCCCSc1nc(NCCCN2CCN(C)CC2)nc(SCCCCCCCCC)n1 [Compound S9S12D9]",
    "label value": "not met"
  }
]

Prompt: Is 1% strictly greater than the molecule's reported Absolute mRNA transfection efficiency in embryonic stem cells? molecule: CCCCCCCCCCCCSc1nc(NCCCN2CCOCC2)nc(SCCCCCCCC)n1 [Compound S8S12D8]
Completion: met

Prompt: Is 1% strictly greater than the molecule's reported Absolute mRNA transfection efficiency in embryonic stem cells? molecule: CCCCCCCCCCCCCCCSc1nc(NCC2CCN(C)CC2)nc(SCCCCCCCCC)n1 [Compound S9S15D10]
Completion: not met

Prompt: Is 1% strictly greater than the molecule's reported Absolute mRNA transfection efficiency in embryonic stem cells? molecule: CCCCCCCCCCCCCCCSc1nc(NCCN2CCN(C)CC2)nc(SCCCCCCCCC)n1 [Compound S9S15D5]
Completion: not met

Prompt: Is 1% strictly greater than the molecule's reported Absolute mRNA transfection efficiency in embryonic stem cells? molecule: CCCCCCCCCCCSc1nc(NCCCCCCCC)nc(NCCCN2CCOCC2)n1 [Compound S11N8D8]
Completion: not met

Prompt: Is 1% strictly greater than the molecule's reported Absolute mRNA transfection efficiency in embryonic stem cells? molecule: CCCCCCCCCCCCNc1nc(NCCN2CCCC2)nc(SCCCCCCCCC)n1 [Compound S9N12D3]
Completion: not met
